Where do these numbers come from? They come from patent US20040242498A1.

EXPERIMENT SUMMARY: Excretion of compound 101 and metabolites in urine and bile of bile duct cannulated rats
Assay type: in vivo, Sprague Dawley rat
MEASUREMENT CONDITIONS: compound 101 intravenously or orally, bile duct cannulated male rats, 24 hours collection
QUANTITY NAME: Metabolic Forms of Compound 101: Rat (in vivo), excreta in which detected

[
  {
    "COMPOUND": "C[C@H](c1nc2ncccc2c(=O)n1-c1ccc(OC2OC(C(=O)O)C(O)C(O)C2O)cc1)N(Cc1cccnc1)C(=O)Cc1ccc(OC(F)(F)F)cc1 (some centres unmarked)",
    "REPORTED RESULT": "bile"
  },
  {
    "COMPOUND": "C[C@H](c1nc2ncccc2c(=O)n1-c1ccc(O)cc1)N(Cc1cccnc1)C(=O)Cc1ccc(OC(F)(F)F)cc1",
    "REPORTED RESULT": "bile"
  },
  {
    "COMPOUND": "C[C@H](c1nc2ncccc2c(=O)n1-c1ccc(O)cc1)N(Cc1ccc[n+]([O-])c1)C(=O)Cc1ccc(OC(F)(F)F)cc1",
    "REPORTED RESULT": "bile"
  }
]
